Biological target: HLA-B*07 (Homo sapiens)
Experiment: MHC binding assay (UV-ligand exchange, ELISA of stabilized MHC complexes)
Settings: peptide exchange yield on HLA-B*07, UV-ligand exchange
Experimental Readout: Peptide exchange

{"columns": ["Substance", "Test System", "Experimental Readout", "Assay Value"],
 "data": [
  ["30 (YPGFTKRL; listed as Homo sapiens) [compound 30]", "HLA-B*07 (Homo sapiens)", "Peptide exchange", "+++ (>50 = +++)"],
  ["92 (TSPLPPTV; listed as Homo sapiens) [compound 92]", "HLA-B*07 (Homo sapiens)", "Peptide exchange", "+++ (>50 = +++)"],
  ["109 (LPRALMRST; listed as Homo sapiens) [compound 109]", "HLA-B*07 (Homo sapiens)", "Peptide exchange", "+++ (>50 = +++)"]
]}

###

Molecular target: HLA-B*07 (Homo sapiens)
Test: MHC binding assay (UV-ligand exchange, ELISA of stabilized MHC complexes)
Conditions: peptide exchange yield on HLA-B*07, UV-ligand exchange
Experimental Readout: Peptide exchange

{"columns": ["Substance", "Test System", "Assay Value"],
 "data": [
  ["286 (APARPAAAF; listed as Homo sapiens) [compound 286]", "HLA-B*07 (Homo sapiens)", "++++ (>75% = ++++)"],
  ["185 (RPVLTASSF; listed as Homo sapiens) [compound 185]", "HLA-B*07 (Homo sapiens)", "++++ (>75% = ++++)"],
  ["221 (LPQRPNARL; listed as Homo sapiens) [compound 221]", "HLA-B*07 (Homo sapiens)", "+++ (>50 = +++)"],
  ["382 (RPGPQRTTSV; listed as Homo sapiens) [compound 382]", "HLA-B*07 (Homo sapiens)", "++++ (>75% = ++++)"],
  ["458 (VPIPTHYFVVL; listed as Homo sapiens) [compound 458]", "HLA-B*07 (Homo sapiens)", "++++ (>75% = ++++)"],
  ["121 (GPFQRAAL; listed as Homo sapiens) [compound 121]", "HLA-B*07 (Homo sapiens)", "+++ (>50 = +++)"],
  ["66 (LPMTVISVL; listed as Homo sapiens) [compound 66]", "HLA-B*07 (Homo sapiens)", "++++ (>75% = ++++)"],
  ["272 (SSPRGTTSTL; listed as Homo sapiens) [compound 272]", "HLA-B*07 (Homo sapiens)", "+++ (>50 = +++)"],
  ["7 (RPSQLAPATL; listed as Homo sapiens) [compound 7]", "HLA-B*07 (Homo sapiens)", "+++ (>50 = +++)"],
  ["3 (MPYVVLTAL; listed as Homo sapiens) [compound 3]", "HLA-B*07 (Homo sapiens)", "++++ (>75% = ++++)"],
  ["23 (VPRPTSTVGL; listed as Homo sapiens) [compound 23]", "HLA-B*07 (Homo sapiens)", "+++ (>50 = +++)"],
  ["22 (LPQLKPAL; listed as Homo sapiens) [compound 22]", "HLA-B*07 (Homo sapiens)", "++++ (>75% = ++++)"],
  ["209 (KIEQIRAVL; listed as Homo sapiens) [compound 209]", "HLA-B*07 (Homo sapiens)", "+++ (>50 = +++)"],
  ["369 (RPYGCVLRAA; listed as Homo sapiens) [compound 369]", "HLA-B*07 (Homo sapiens)", "++++ (>75% = ++++)"],
  ["34 (APMAPGRSP; listed as Homo sapiens) [compound 34]", "HLA-B*07 (Homo sapiens)", "+++ (>50 = +++)"],
  ["483 (KPAAAGVKKVA; listed as Homo sapiens) [compound 483]", "HLA-B*07 (Homo sapiens)", "+++ (>50 = +++)"],
  ["248 (KPYDGIPAS; listed as Homo sapiens) [compound 248]", "HLA-B*07 (Homo sapiens)", "+++ (>50 = +++)"],
  ["85 (MPMQDIKMILKM; listed as Homo sapiens) [compound 85]", "HLA-B*07 (Homo sapiens)", "+++ (>50 = +++)"],
  ["31 (RPGPSDPAA; listed as Homo sapiens) [compound 31]", "HLA-B*07 (Homo sapiens)", "+++ (>50 = +++)"]
]}

###

Molecular target: HLA-B*07 (Homo sapiens)
Experiment: MHC binding assay (UV-ligand exchange, ELISA of stabilized MHC complexes)
Details: peptide exchange yield on HLA-B*07, UV-ligand exchange
Description: Candidate peptides for T cell based therapies according to the present invention were further tested for their MHC binding capacity (affinity). The individual peptide-MHC complexes were produced by UV-ligand exchange, where a UV-sensitive peptide is cleaved upon UV-irradiation and exchanged with the peptide of interest as analyzed. Only peptide candidates that can effectively bind and stabilize the peptide-receptive MHC molecules prevent dissociation of the MHC complexes. […]

{"columns": ["Substance", "Peptide exchange"],
 "data": [
  ["302 (IPIDQILNSF; listed as Homo sapiens) [compound 302]", "+++ (>50 = +++)"],
  ["72 (APCNGNVAV; listed as Homo sapiens) [compound 72]", "+++ (>50 = +++)"],
  ["64 (VPRPIFSQLYL; listed as Homo sapiens) [compound 64]", "++++ (>75% = ++++)"],
  ["234 (HPRAPGEQQRL; listed as Homo sapiens) [compound 234]", "+++ (>50 = +++)"],
  ["252 (QPENSLEGISL; listed as Homo sapiens) [compound 252]", "+++ (>50 = +++)"],
  ["463 (LPTDLFNSVM; listed as Homo sapiens) [compound 463]", "++++ (>75% = ++++)"],
  ["457 (RPPLSQRHTF; listed as Homo sapiens) [compound 457]", "++++ (>75% = ++++)"],
  ["311 (APRLALDPDAL; listed as Homo sapiens) [compound 311]", "++++ (>75% = ++++)"],
  ["376 (FPQVGRTAL; listed as Homo sapiens) [compound 376]", "++++ (>75% = ++++)"],
  ["271 (SPTPVFTTL; listed as Homo sapiens) [compound 271]", "+++ (>50 = +++)"],
  ["14 (AVHEIGHSL; listed as Homo sapiens) [compound 14]", "+++ (>50 = +++)"],
  ["52 (KEDNPSGHTYTL; listed as Homo sapiens) [compound 52]", "+++ (>50 = +++)"],
  ["140 (TPFPDIHWF; listed as Homo sapiens) [compound 140]", "++++ (>75% = ++++)"],
  ["211 (IPDTIASVL; listed as Homo sapiens) [compound 211]", "+++ (>50 = +++)"],
  ["68 (FPNEVSVVL; listed as Homo sapiens) [compound 68]", "++++ (>75% = ++++)"],
  ["125 (SPAKQFNIY; listed as Homo sapiens) [compound 125]", "++ (>20% = ++)"],
  ["53 (SPRIPFSTF; listed as Homo sapiens) [compound 53]", "++++ (>75% = ++++)"],
  ["254 (RVIQGTTTL; listed as Homo sapiens) [compound 254]", "++++ (>75% = ++++)"],
  ["314 (IALMKLAGPL; listed as Homo sapiens) [compound 314]", "++ (>20% = ++)"],
  ["495 (SPSYTQASL; listed as Homo sapiens) [compound 495]", "++++ (>75% = ++++)"],
  ["329 (QPANFIVLL; listed as Homo sapiens) [compound 329]", "+++ (>50 = +++)"],
  ["470 (RPNGEVKSEL; listed as Homo sapiens) [compound 470]", "++++ (>75% = ++++)"],
  ["365 (RPKHFLQML; listed as Homo sapiens) [compound 365]", "++++ (>75% = ++++)"],
  ["120 (TVRPKNAAL; listed as Homo sapiens) [compound 120]", "+++ (>50 = +++)"],
  ["191 (KPKAVKPKAA; listed as Homo sapiens) [compound 191]", "++++ (>75% = ++++)"],
  ["497 (YVVKPLHPF; listed as Homo sapiens) [compound 497]", "+++ (>50 = +++)"],
  ["487 (IPWFIKTAF; listed as Homo sapiens) [compound 487]", "++++ (>75% = ++++)"],
  ["10 (SPMEAELVRRIL; listed as Homo sapiens) [compound 10]", "++++ (>75% = ++++)"],
  ["359 (SPRRLVELAGQSL; listed as Homo sapiens) [compound 359]", "++++ (>75% = ++++)"],
  ["108 (APRGSPPI; listed as Homo sapiens) [compound 108]", "+++ (>50 = +++)"],
  ["266 (KPYEGRVEI; listed as Homo sapiens) [compound 266]", "++++ (>75% = ++++)"],
  ["98 (FPCSALLACF; listed as Homo sapiens) [compound 98]", "++++ (>75% = ++++)"],
  ["306 (RPFPLALL; listed as Homo sapiens) [compound 306]", "+++ (>50 = +++)"],
  ["146 (SPTRGSEF; listed as Homo sapiens) [compound 146]", "++++ (>75% = ++++)"],
  ["226 (APGGSSRSSL; listed as Homo sapiens) [compound 226]", "+++ (>50 = +++)"],
  ["99 (MPVSAFTVI; listed as Homo sapiens) [compound 99]", "++++ (>75% = ++++)"],
  ["227 (RPGTGQGGL; listed as Homo sapiens) [compound 227]", "+++ (>50 = +++)"],
  ["331 (SPDSAILKL; listed as Homo sapiens) [compound 331]", "+++ (>50 = +++)"]
]}
